Below, each of the molecules is paired with its reported TGI value.
- System: MOLT-4 leukemia
- experiment: NCI tumour cell line growth inhibition, 48 h
Numeric answer only, unit µM assumed.

Solved entries (count: 2):
- NC(=O)NC1C(C(=O)O)N(Cc2ccccc2)C(=O)N1Cc1ccccc1 (stereo not drawn): 10.9
- Cc1cccc(N2C(=O)C3c4[nH]c5ccc(C)cc5c4C4CCC(C(C)(C)C)CC4C3C2=O)c1 (stereo not drawn): 29.7

# query: TGI of entry COc1ccc(C(=O)C#Cc2c[nH]c(=O)[nH]c2=O)cc1
8.19

Okay, and CC(=O)O[C@H]1CC[C@@]2(C)C(=C/C(=N/OCCN3CCCC3)[C@H]3[C@@H]4CC[C@H](OC(C)=O)[C@@]4(C)CC[C@@H]32)C1 ?
84.3

====

- Tested on: UO-31 renal
- experiment: NCI tumour cell line growth inhibition, 48 h
measurement.type: TGI (µM)
Numeric answer only, unit µM assumed.

Solved entries (count: 5):
• CC(C)(C)OC(=O)NCc1cccc(N=C=S)c1 = 38.8
• Cc1ccc2nc(-c3ccc(C(C)(C)C)cc3)oc(=O)c2c1 = 70
• NC(=S)N1N=C2c3ccccc3CC[C@H]2[C@@H]1c1ccc(Cl)cc1 = 66.8
• CC1=CP(=O)(c2c(C(C)C)cc(C(C)C)cc2C(C)C)CCC1Cl (stereo not drawn) = 29.2
• COc1cnc2c(c1)C(=O)c1c-2n(CCCN2CCC(O)CC2)c(=O)c2cc(Cl)ccc12 = 1.59

Okay, next one:
# query: TGI of entry CC1OC(CC(=O)O)CC2=C1C(=O)c1c(O)cccc1C2=O (stereo not drawn)
1.07

====

Below, each of the molecules is paired with its reported TGI value.
- Test system: DU-145 prostate
- experiment: NCI tumour cell line growth inhibition, 48 h
Numeric answer only, unit µM assumed.

• CCSC[C@@H]1C[C@](O)(c2ccc(F)cc2)[C@@H](c2ccc(F)cc2)O1 = 28.4

# query: TGI of entry CC1=Nc2c([nH]c(=S)[nH]c2=O)NC(c2c(Cl)cccc2Cl)C1 (centres undefined)
3.51

Okay, and CN(CCC(=O)/C(=C\c1ccccc1)c1ccc(Cl)cc1)Cc1ccccc1 ?
6.78

Okay, and CC(C)c1ccccc1SCc1cc(=O)cc(CSc2ccccc2C(C)C)o1 ?
55.4

====

- System: MCF7 breast
- experiment: NCI tumour cell line growth inhibition, 48 h; in the data active means GI50 below about 0.43 µM; inactive means the rest
Hi! Could you answer with just one of these? yes (1) for active, no (0) for inactive

Past entries and their recorded results:
• COc1ccc(C(=O)c2sc3nc(-c4cccs4)ccc3c2N)cc1OC = no (0)
• NC(=O)c1sc(-n2cnc3cc(C(F)(F)F)ccc32)cc1OCc1ccccc1Br = no (0)
• CCCCOC1OC(COC(=O)C(C)C)C(OC(=O)C(C)C)C(O)C1OC1OC(C)C(OC(=O)CCC)C(OC(=O)C(C)C)C1O (centres undefined) = no (0)
• CCCCCCNCc1cc(C(C)(C)C)cc(CNCCCCCC)c1O = no (0)
• CC1SC2(CCCCC2)N(NC(=O)c2[nH]c3ccc(Br)cc3c2-c2ccccc2)C1=O (centres undefined) = no (0)

Assay outcome for Cc1[nH]c2cc(F)ccc2c1-c1nc2c3cccnc3c3ncccc3c2[nH]1 : what was it?
yes (1)

Okay, and COCCOCCOCc1n(Cc2ccc3ccccc3n2)c2ccccc2[n+]1Cc1ccc2ccccc2n1 ?
yes (1)

Okay, and O=C1CC/C(=C/COc2cc(=O)oc3ccccc23)O1 ?
no (0)

Okay, and Nc1nc(N)c2nc3c(nc2n1)CCCCCCCCCC3 ?
no (0)

Okay, and Cc1nc2ccccc2nc1N=Nc1ccccc1 ?
no (0)

Okay, and O=[N+]([O-])c1cc([N+](=O)[O-])c(Cl)cc1Cl ?
no (0)

Okay, and CN(C)c1ccc(/C=N/S(=O)(=O)c2ccc(-n3c(-c4ccccc4)nc4c(Br)cc(Br)cc4c3=O)cc2)cc1 ?
no (0)

Okay, and COc1cc(C)c2sc3ccccc3c(=O)c2c1NCCN(C)C ?
no (0)

Okay, and COc1ccc(-c2c3c(nc4n[nH]c(-c5ccc(Cl)cc5)c24)-c2ccccc2C(=O)C3=O)cc1 ?
no (0)

====

- Test system: SK-MEL-28 melanoma
- experiment: NCI tumour cell line growth inhibition, 48 h
measurement.type: GI50

- COc1cc(Cl)cc(-c2nn(-c3cccc(NC(=O)Nc4ccc(Cl)c(Cl)c4)c3)cc2-c2ccncc2)c1: 2.96 µM

What value of GI50 on SK-MEL-28 melanoma does O=C1/C(=C/c2ccc(O)cc2)COc2ccc(O)c(O)c21 have?
3.81 µM

Okay, and CCCCCCCCCCCCCC[n+]1ccc(C)cc1 ?
1.44 µM

Okay, and Cc1cc(O)c(C2=NN(c3ccc(S(N)(=O)=O)cc3)C(/C=C/c3ccccc3)C2)cc1Cl (configuration not stated) ?
10.9 µM

Okay, and Cc1nc2cc(Nc3nc(Nc4ccc(F)cc4)nc(N4CCOCC4)n3)ccc2n1Cc1ccccc1 ?
3.17 µM

Okay, and O=Cc1ccc(-c2ccc(-c3nc4ccccc4s3)cc2)s1 ?
> 100 µM

====

- Test system: MDA-MB-435
- experiment: NCI tumour cell line growth inhibition, 48 h
Decide using TGI: a value greater than or equal to 4 µM is Condition met, a smaller one is Condition not met.

Would you say CCCCOC1OC(COC(=O)C(C)C)C(OC(=O)C(C)C)C(O)C1OC1OC(C)C(OC(=O)CCC)C(OC(=O)C(C)C)C1O (centres undefined) shows TGI at minimum 4 µM?
Condition met

Okay, and O=Cc1ccc(-c2ccc(-c3nc4ccccc4s3)cc2)s1 ?
Condition met

Okay, and CCc1c(-c2ccc(OC)cc2)oc(OC)c(C)c1=O ?
Condition met

====

- Tested on: NCI-H522 lung
- experiment: NCI tumour cell line growth inhibition, 48 h
Below, each of the compounds is paired with its reported TGI value.
Numeric answer only, unit µM assumed.

What value of TGI on NCI-H522 lung does CN(C)c1cccc(F)c1C(=O)NC(=O)Nc1ccc(Cl)cc1 have?
5.77

Okay, and COc1cc(Cl)cc(-c2nn(-c3cccc(NC(=O)Nc4ccc(Cl)c(Cl)c4)c3)cc2-c2ccncc2)c1 ?
4.48

Okay, and COc1cnc2c(c1)C(=O)c1c-2n(CCCN2CCC(O)CC2)c(=O)c2cc(Cl)ccc12 ?
2.02

Okay, and C/C(=N\Nc1nc2ccccc2s1)c1cc2ccccc2cn1 ?
26

====

- System: MALME-3M melanoma
- experiment: NCI tumour cell line growth inhibition, 48 h
measurement.type: TGI

Solved entries (count: 5):
• C=Cn1c([N+](=O)[O-])cnc1/C=C/c1ccc(C(=O)OCCN2CCOCC2)cc1 = > 100 µM
• CC1(C)O[C@@H]2C[C@H]3[C@@H]4C[C@H](F)C5=CC(=O)C=C[C@]5(C)[C@@]4(F)[C@@H](O)C[C@]3(C)[C@]2(C(=O)CO)O1 = > 100 µM
• CN(CCc1ccccn1)C(=S)N/N=C(\c1ccccc1)c1ccccn1 = 3.14 µM
• NC1(Cc2ccc(Cl)cc2)CCN(c2ncnc3[nH]ccc23)CC1 = 21.6 µM
• CC(C)N(C(=O)C12C3C4C1C1C2C3C41C(N)=O)C(C)C (configuration not stated) = > 100 µM

# query: TGI of entry C(#CP(c1ccccc1)c1ccccc1)P(C#CP(c1ccccc1)c1ccccc1)c1ccccc1
> 100 µM

Okay, and O=C1c2cccnc2C(=O)c2c1c(C(=O)OCCCN1CCCCC1)c1ccccn21 ?
0.0682 µM

Okay, and CCC(C)C(=O)OCC(=O)c1ccc(-c2ccccc2)cc1 (configuration not stated) ?
> 100 µM

Okay, and Cn1cc(S(=O)(=O)NC(=O)Nc2ccc(Cl)cc2)c(=O)c2ccc(F)cc21 ?
> 100 µM

Okay, and CCCCCCNCc1cc(C(C)(C)C)cc(CNCCCCCC)c1O ?
3.43 µM

Okay, and CC(=O)O[C@H]1CC[C@@]2(C)C(=C/C(=N/OCCN3CCCC3)[C@H]3[C@@H]4CC[C@H](OC(C)=O)[C@@]4(C)CC[C@@H]32)C1 ?
36.1 µM

Okay, and CCCCOP(C)(=O)C(NC(=O)OCC)(C(F)(F)F)C(F)(F)F (configuration not stated) ?
> 100 µM

Okay, and N#CC1=C(O)NC(O)=C(C#N)C1c1ccc(C2C(C#N)=C(O)NC(O)=C2C#N)cc1 ?
> 100 µM

Okay, and CCCCCCCCCCCCCCCCNc1ccn(C2CC(O)C(COC(c3ccccc3)(c3ccccc3)c3ccc(OC)cc3)O2)c(=O)n1 (configuration not stated) ?
> 100 µM

Okay, and Nc1nc(N)c2nc3c(nc2n1)CCCCCCCCCC3 ?
> 100 µM

Okay, and C=C=CC(NC(=O)c1ccccc1)(C(=O)O)C(F)(F)F (configuration not stated) ?
> 100 µM

Okay, and COc1ccc(NC(=O)CC(=O)n2nc(C)c(N=Nc3ccccc3C(=O)O)c2C)cc1 ?
> 100 µM

Okay, and NC(=O)NC1C(C(=O)O)N(Cc2ccccc2)C(=O)N1Cc1ccccc1 (configuration not stated) ?
> 100 µM
